// data source = PubChem BioAssay

In this section we review reported inhibition values for a set of compounds.
- ASSAY_INFO: inhibitors of PAF-induced NFkB signaling in CF airway cells, dose response, cell-based, uHTS hits, panel, cytotoxicity readout (AID 624344)
- RECORDED_CONDITIONS: CF bronchial epithelial cells, PAF-induced NFkB reporter inhibition, with PAF, run 2; at 79 µM (top of the series) unless noted
Field: numeric (%). Do not append units.

Here's what some known entries look like.
- COMPOUND: "COC(=O)c1ccc(NC(=O)c2ccccc2NS(=O)(=O)c2ccccc2)cc1"
  EXPERIMENTAL_RESULT: 105
- COMPOUND: "COc1ccc(S(=O)(=O)c2c(O)c3ccc(C(=O)Nc4ccccc4Cl)cc3[nH]c2=O)cc1"
  EXPERIMENTAL_RESULT: 106
- COMPOUND: "COc1cccc(-c2ccc3ncnc(NCc4cccc(C)c4)c3c2)c1"
  EXPERIMENTAL_RESULT: 104
- COMPOUND: "CCc1cc(-c2[nH]ncc2-c2ccc(OC)cc2)c(O)cc1O"
  EXPERIMENTAL_RESULT: 104
- COMPOUND: "CC1Sc2ccc(Cl)cc2-c2nc(N)ncc21 (stereo unspecified)"
  EXPERIMENTAL_RESULT: 108
- COMPOUND: "Cc1ccnc(Nc2nc(-c3sc(C)nc3C)cs2)c1"
  EXPERIMENTAL_RESULT: 104

Which inhibition value belongs to COc1cc(C2c3cc4c(cc3C(O)C3COC(=O)C23)OCO4)cc(OC)c1OC (stereo unspecified) ?
37.3

Which inhibition value belongs to COc1ccc(CNC(=O)C(c2ccc(O)cc2)N(Cc2ccco2)C(=O)c2snc(C(N)=O)c2N)cc1 (stereo unspecified) ?
104

Which inhibition value belongs to Clc1ccc(CSc2nnc(-c3ccncc3)o2)cc1 ?
83.7

Which inhibition value belongs to O=S1(=O)CC=C(CSC(=S)NC2CCS(=O)(=O)C2)C1 (stereo unspecified) ?
110

---

- ASSAY_INFO: caspase-8 TRAIL sensitization, hit retest, confirmation, cell-based, NB7+caspase-8, with/without TRAIL, luminescence panel (AID 651596)
- RECORDED_CONDITIONS: NB7 neuroblastoma + caspase-8, without TRAIL, luminescence viability, without TRAIL, mean of runs, at 10 µM
activity less than 80% is YES; activity greater than or equal to 80% is NO.

Answered examples (6):
- COMPOUND: "CC(C)(C)Nc1ncnc2c1cnn2-c1ccccc1"
  ASSIGNED_LABEL: "YES"
- COMPOUND: "COc1ccc(-c2cc(-c3ccccc3)c(C#N)c(S(C)(=O)=O)n2)cc1"
  ASSIGNED_LABEL: "NO"
- COMPOUND: "Cc1ccc(C(C)C)c(OCC(=O)Nc2ccc3c(c2)nc(CCN2CCCCC2)n3C)c1"
  ASSIGNED_LABEL: "YES"
- COMPOUND: "Cc1nc(NCC2CCCO2)nc2c1C(=O)CC(C)C2 (stereo not given)"
  ASSIGNED_LABEL: "YES"
- COMPOUND: "COc1cccc(C(=O)Oc2c(CN3CCOCC3)cc(Cl)c3cccnc23)c1"
  ASSIGNED_LABEL: "YES"
- COMPOUND: "C#Cc1ccccc1OCCCN1CCC(C(O)(c2ccccc2)c2ccccc2)CC1"
  ASSIGNED_LABEL: "NO"

For COc1ccc(OCc2cccc(C(=O)O)c2)cc1 , is the recorded activity below the cut-off of 80%?
YES

For CCn1c(=O)c([N+](=O)[O-])c(Cl)c2ccccc21 , is the recorded activity below the cut-off of 80%?
YES

For O=c1[nH]c(/C=C/c2ccccc2Cl)nc2ccccc12 , is the recorded activity below the cut-off of 80%?
YES

For CCCCCCCNC(=O)C1(CC2CC(c3cccc(Br)c3)=NO2)CCNCC1 (stereo not given) , is the recorded activity below the cut-off of 80%?
NO

For COc1ccc(/C=C/c2nc3ccccc3c(=O)o2)cc1 , is the recorded activity below the cut-off of 80%?
NO

---

- ASSAYED_SYSTEM: Tumor necrosis factor receptor superfamily member 10B (Homo sapiens) (UniProt O14763)
- Sequence (O14763 whole entry, looked up): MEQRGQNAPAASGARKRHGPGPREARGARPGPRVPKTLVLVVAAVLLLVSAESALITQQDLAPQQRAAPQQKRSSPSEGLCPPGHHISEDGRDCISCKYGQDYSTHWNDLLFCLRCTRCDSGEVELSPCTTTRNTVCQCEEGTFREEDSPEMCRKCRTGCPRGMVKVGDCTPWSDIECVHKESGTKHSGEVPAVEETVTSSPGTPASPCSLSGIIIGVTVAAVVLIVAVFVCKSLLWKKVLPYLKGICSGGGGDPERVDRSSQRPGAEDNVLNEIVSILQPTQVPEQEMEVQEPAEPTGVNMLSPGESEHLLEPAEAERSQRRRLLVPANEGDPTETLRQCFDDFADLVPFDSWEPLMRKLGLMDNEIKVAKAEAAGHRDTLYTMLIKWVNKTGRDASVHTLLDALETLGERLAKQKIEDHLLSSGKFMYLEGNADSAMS
- ASSAY_INFO: caspase-8 TRAIL sensitization, hit retest, confirmation, cell-based, NB7+caspase-8, with/without TRAIL, luminescence panel (AID 651596)
- RECORDED_CONDITIONS: NB7 neuroblastoma + caspase-8, TRAIL sensitization, luminescence viability, with TRAIL, mean of runs, at 10 µM, stronger effect = higher value
In this section we review reported activity values for a set of compounds.
Field: numeric (%). Do not append units.

Here's what some known entries look like.
- COMPOUND: "O=C(Nc1cc(S(=O)(=O)N2CCOCC2)ccc1N1CCOCC1)c1ccc([N+](=O)[O-])s1"
  activity [%]: 39.1
- COMPOUND: "O=C(Nc1ccccn1)c1ccc2c(=O)n3c(nc2c1)CCCCC3"
  activity [%]: 50.4
- COMPOUND: "CCc1ccc2nc(N(CCCN(C)C)C(=O)c3ccc(S(=O)(=O)N4CCCc5ccccc54)cc3)sc2c1"
  activity [%]: 38.9

// next entry
Which activity value belongs to COC(=O)CSc1nnc(NC(=O)/C=C\c2ccc3c(c2)OCO3)s1 ?
49.5

---

- ASSAY_INFO: inhibitors of PAF-induced NFkB signaling in CF airway cells, dose response, cell-based, uHTS hits, panel, cytotoxicity readout (AID 624344)
- RECORDED_CONDITIONS: CF bronchial epithelial cells, PAF-induced NFkB reporter inhibition, with PAF, run 2; at 79 µM (top of the series) unless noted
In this section we review reported inhibition values for a set of compounds.
Field: numeric (%). Do not append units.

- COMPOUND: "CC1(Cc2ccc(Cl)cc2)C(=O)Nc2ccc(-c3cccnc3)cc21 (stereo not given)"
  ASSAY_METRIC: "inhibition"
  EXPERIMENTAL_RESULT: 102
- COMPOUND: "COc1cc(OC)cc(C(=O)N[C@H](C(=O)Nc2nc3ccccc3[nH]2)C(C)C)c1"
  ASSAY_METRIC: "inhibition"
  EXPERIMENTAL_RESULT: 80.2
- COMPOUND: "O=C1NC(=S)N/C1=C/c1cccnc1"
  ASSAY_METRIC: "inhibition"
  EXPERIMENTAL_RESULT: 103

Which inhibition value belongs to O=C(Nc1ccc(OCC(=O)N2CCOCC2)cc1)c1cncc(Br)c1 ?
98.9

Which inhibition value belongs to CC(=O)Oc1c(C(=O)c2nnc(C)o2)c(=O)n(Cc2ccccc2)c2ccccc12 ?
101

Which inhibition value belongs to COC(=O)C1=C(C(=O)OC)[C@@H]2N(Cc3ccccc3)c3ccccc3[C@@]23C[C@@H](C(=O)OC)N(C(=O)c2ccc(Br)cc2)C3=N1 ?
110

Which inhibition value belongs to Cc1nc(N2CCC(C(N)=O)CC2)c2c(-c3cccs3)csc2n1 ?
93.8

Which inhibition value belongs to CCc1ccccc1NC(=O)CN(C)C(=O)Cn1ncc(Cl)c(Cl)c1=O ?
101

Which inhibition value belongs to NC(=S)N1OC[C@@H]2COc3ccc4ccccc4c3[C@@H]21 ?
105

Which inhibition value belongs to Cc1ccnc(NC(=O)CSc2cc(=O)n(C)c3ccccc23)c1 ?
110

Which inhibition value belongs to CC(=O)Oc1ccc(N(C(C)=O)S(=O)(=O)c2ccc(Cl)cc2)c2ccccc12 ?
108

Which inhibition value belongs to Nc1nccc(SCc2ccc(Cl)cc2Cl)n1 ?
74.1

Which inhibition value belongs to Cc1ccc(NC(=O)CSc2ncnc3ccccc23)cc1S(=O)(=O)N1CCOCC1 ?
98.4

Which inhibition value belongs to COc1ccc(-c2oc3ccc(-c4ccc5c(c4)OCO5)cc3c2C#CC2(O)CCCCC2)cc1 ?
91.6

Which inhibition value belongs to Oc1ccc(Cl)cc1Cc1cc(Cl)ccc1O ?
107

Which inhibition value belongs to O=C(Oc1ccc(F)cc1C(=O)/C=C/c1cccs1)c1cccc([N+](=O)[O-])c1 ?
40.3

Which inhibition value belongs to O=C(CCl)N(Cc1cc(=O)[nH]c2ccccc12)c1ccccc1 ?
83.6

---

- ASSAY_INFO: caspase-8 TRAIL sensitization, hit retest, confirmation, cell-based, NB7+caspase-8, with/without TRAIL, luminescence panel (AID 651596)
- RECORDED_CONDITIONS: NB7 neuroblastoma + caspase-8, without TRAIL, luminescence viability, without TRAIL, mean of runs, at 10 µM
activity less than 90% is yes; activity greater than or equal to 90% is no.

Answered examples (4):
- COMPOUND: "Brc1ccc(-c2nnc3sc(CN4CCC5(CC4)OCCO5)cn23)cc1"
  ASSIGNED_LABEL: "yes"
- COMPOUND: "Cc1cc(NCCCn2ccnc2)n2ncc(-c3ccc(Cl)cc3)c2n1"
  ASSIGNED_LABEL: "yes"
- COMPOUND: "Cc1cc(NC2CCCC2)n2ncc(-c3ccccc3)c2n1"
  ASSIGNED_LABEL: "yes"
- COMPOUND: "CCOc1cc(NC2CS(=O)(=O)CC2O)c(OCC)cc1NC(=O)c1ccccc1 (stereo not drawn)"
  ASSIGNED_LABEL: "yes"

For CCn1nc(C(=O)NCCc2ccc(S(N)(=O)=O)cc2)c2ccccc2c1=O , is the recorded activity below the cut-off of 90%?
yes

For COc1ccc(-c2csc(NC(=O)C3CCN(c4ncnc5sc(C)c(C)c45)CC3)n2)cc1OC , is the recorded activity below the cut-off of 90%?
yes

For COc1ccc(N(Cc2cc(=O)[nH]c3ccccc23)C(=O)CCl)cc1 , is the recorded activity below the cut-off of 90%?
no

For O=C(N/N=C/c1cccs1)c1n[nH]c2c1CCCC2 , is the recorded activity below the cut-off of 90%?
yes

For COc1ccc(C)c2sc(N(CCCN(C)C)C(=O)c3ccc(S(=O)(=O)N4CCc5ccccc5C4)cc3)nc12 , is the recorded activity below the cut-off of 90%?
no

For O=C(NOCc1ccccc1)c1ccc(Cl)cc1 , is the recorded activity below the cut-off of 90%?
yes

For CC(C)NC(=O)c1ccc2c3n(nc2c1)-c1ccccc1CO3 , is the recorded activity below the cut-off of 90%?
no

For Nc1nc(Nc2ccccc2)nc2ccccc12 , is the recorded activity below the cut-off of 90%?
yes

For COc1ccc(-c2cn3ccccc3n2)cc1[N+](=O)[O-] , is the recorded activity below the cut-off of 90%?
yes
